Entry source: paper doi:10.1101/704981v1

Target Desc: EcThrRS (Escherichia coli)
Sequence (P0A8M3 whole entry): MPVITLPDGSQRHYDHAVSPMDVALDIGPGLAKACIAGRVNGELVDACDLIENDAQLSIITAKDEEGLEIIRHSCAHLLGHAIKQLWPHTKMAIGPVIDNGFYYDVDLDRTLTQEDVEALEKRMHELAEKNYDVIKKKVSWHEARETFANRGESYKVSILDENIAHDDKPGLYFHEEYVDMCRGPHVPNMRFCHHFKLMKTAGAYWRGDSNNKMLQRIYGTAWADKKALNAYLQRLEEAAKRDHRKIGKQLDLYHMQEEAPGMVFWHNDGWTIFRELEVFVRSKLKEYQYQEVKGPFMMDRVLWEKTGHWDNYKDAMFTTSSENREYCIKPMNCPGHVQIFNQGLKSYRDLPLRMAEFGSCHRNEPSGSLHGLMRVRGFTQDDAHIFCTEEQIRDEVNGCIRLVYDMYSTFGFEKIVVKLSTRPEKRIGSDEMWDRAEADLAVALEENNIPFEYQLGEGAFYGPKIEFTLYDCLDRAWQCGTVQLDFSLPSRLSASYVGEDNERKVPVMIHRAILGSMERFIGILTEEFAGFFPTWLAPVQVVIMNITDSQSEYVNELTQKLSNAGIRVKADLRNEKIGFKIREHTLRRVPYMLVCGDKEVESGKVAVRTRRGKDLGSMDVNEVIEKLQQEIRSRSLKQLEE
pIC50: −log10 of the molar value.

Smiles Notation | pIC50
O=C(N[C@@H]1C(=O)O[C@@H]1Cc1ccc([N+](=O)[O-])cc1)c1cccc(O)c1O | 7.04
